# Read-out: Interferon-gamma inducible Protein 10 (IP10), CXCL10 (gene 3627)
# assay overview: BSK_BE3C_IP10: BioMAP Diversity Plus: BE3C Assay for Interferon-gamma inducible Protein 10 (IP10) Biomarker Activity (AID 2283034)
# condition context: primary human bronchial epithelial cells; actives raise or lower the signal
Active and inactive are the calls of the source. Rule for the calls: active = hit-call score of the fitted dose curve at least 0.9, where 1 is the maximum; inactive = score below 0.9.
Possible outcomes: active, inactive

compound: CNC(=O)Oc1cc(C)c(SC)c(C)c1
category: inactive
//
compound: N#CCCCCC#N
category: inactive
//
compound: O=P1(NCCCl)OCCCN1CCCl (configuration not stated)
category: inactive
//
compound: CC(C)(C)C(O)C(Oc1ccc(-c2ccccc2)cc1)n1cncn1 (configuration not stated)
category: active
//
compound: O=[N+]([O-])O
category: inactive
//
compound: CCc1cc(C)cc(CC)c1-c1c(OC(=O)C(C)(C)C)n2n(c1=O)CCOCC2
category: inactive
//
compound: Clc1ccc(-c2ccccc2)cc1
category: inactive

----------
# assay overview: ATG_TA_CIS: Attagene CIS-FACTORIAL HepG2 Assay for human TA Basal Promoter (AID 2282964)
# condition context: HepG2 Attagene CIS-factorial TA basal promoter reporter; actives raise or lower the signal
The source made the active and inactive calls. How the source made its calls: active means hit-call score of the fitted dose curve at least 0.9, where 1 is the maximum; inactive means score below 0.9.
Outcome codes: active, inactive

molecule: CCOC(=O)COc1ccc(Cl)cc1Cl
category: inactive
--
molecule: C[C@]12CCC(=O)C(O)=C1CC[C@@H]1[C@@H]2CC[C@]2(C)C(=O)CC[C@@H]12
category: inactive
--
molecule: [N-]=[N+]=CC(=O)OC[C@H](N)C(=O)O
category: inactive
--
molecule: ClCCCCCCCl
category: inactive
--
molecule: COCC(=O)N(c1c(C)cccc1C)N1CCOC1=O
category: inactive
--
molecule: Oc1cc(Cl)ccc1Cl
category: inactive
--
molecule: CC=Cc1ccc2c(c1)OCO2
category: inactive
--
molecule: C=CCN(CC=C)C(=O)C(Cl)Cl
category: inactive
--
molecule: CCCCOP(=O)(O)OCCCC
category: inactive
--
molecule: CCOC(=O)C1OC1(C)c1ccccc1 (centres undefined)
category: inactive
--
molecule: COc1cc(OC)nc(Oc2cccc(Oc3nc(OC)cc(OC)n3)c2C(=O)O)n1
category: inactive
--
molecule: CC1CCCC1.[C-]#[O+].[C-]#[O+].[C-]#[O+].[Mn]
category: inactive
--
molecule: CCCCCc1cc(O)cc(O)c1
category: active
--
molecule: CCc1cc(C)cc(CC)c1-c1c(OC(=O)C(C)(C)C)n2n(c1=O)CCOCC2
category: inactive

----------
# Read-out: serum amyloid A (SAA), SAA1 (gene 6288)
# assay overview: BSK_CASM3C_SAA: BioMAP Diversity Plus: CASM3C Assay for serum amyloid A (SAA) Biomarker Activity (AID 2283049);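 note: SAA protein level quantified by ELISA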
# condition context: primary human coronary artery smooth muscle cells; actives raise or lower the signal
Activity calls are given as the source filed them. Rule for the calls: active = hit-call score of the fitted dose curve at least 0.9, where 1 is the maximum; inactive = score below 0.9.
Outcome codes: y for active, n for inactive

molecule smiles: O=C(CCl)c1ccccc1
category: y

molecule smiles: CC(=O)/C=C/c1ccccc1
category: n

molecule smiles: CC(C)(C)C(=O)CCl
category: n

molecule smiles: CCc1cc(C)cc(CC)c1-c1c(OC(=O)C(C)(C)C)n2n(c1=O)CCOCC2
category: y

molecule smiles: Oc1ccc(C2(c3ccc(O)cc3)c3ccccc3-c3ccccc32)cc1
category: y

molecule smiles: O=[N+]([O-])C=Cc1ccccc1
category: n

molecule smiles: C=CCN(CC=C)C(=O)C(Cl)Cl
category: n
